Entry source: paper PMC6650976

# target-entity: the molecule itself
# method-notes: cross-linking; Ca2+-loaded proteins: 0.02% glutaric aldehyde, 16 h, 20 °C, protein 1 mg/mL, 20 mM Tricine-KOH pH 7.4, 50 mM KCl, 1 mM DTT, 1 mM CaCl2; SDS-PAGE, Coomassie, densitometry; self-association
Multimer 100–250 kDa, % values for the proteins below.

protein | units | Multimer 100–250 kDa, %
human recoverin mutant V122A (natural protein, UniProt P35243 1-200, looked up, myristoylated (fraction of non-myristoylated forms did not exceed 16%), recoverin, human, UniProt P35243, C-terminal 'gray' cluster mutant; Parent construct as m1; source: E. coli, expressed and purified similarly to the rWT protein (phenyl-Sepharose, Toyopearl SuperQ-650M)) MGNSKSGALSKEILEELQLNTKFSEEELCSWYQSFLKDCPTGRITQQQFQSIYAKFFPDTDPKAYAQHVFRSFDSNLDGTLDFKEYVIALHMTTAGKTNQKLEWAFSLYDVDGNGTISKNEALEIVMAIFKMITPEDVKLLPDDENTPEKRAEKIWKYFGKNDDDKLTEKEFIEGTLANKEILRLIQFEPQKVKEKMKNA | % | 26.7
human recoverin mutant F35A (natural protein, UniProt P35243 1-200, looked up, myristoylated (fraction of non-myristoylated forms did not exceed 16%), recoverin, human, UniProt P35243, N-terminal 'black' cluster mutant; Parent construct as m1; source: E. coli, expressed and purified similarly to the rWT protein (phenyl-Sepharose, Toyopearl SuperQ-650M)) MGNSKSGALSKEILEELQLNTKFSEEELCSWYQSALKDCPTGRITQQQFQSIYAKFFPDTDPKAYAQHVFRSFDSNLDGTLDFKEYVIALHMTTAGKTNQKLEWAFSLYDVDGNGTISKNEVLEIVMAIFKMITPEDVKLLPDDENTPEKRAEKIWKYFGKNDDDKLTEKEFIEGTLANKEILRLIQFEPQKVKEKMKNA | % | 13.2
